Entries annotated with measured melting point

Consider the worked cases shown below.
CCCCCCCCCCOc1ccc(/C=N/c2ccc(/C=C/C(=O)OCC)cc2)cc1 ... 114 to 115 °C
COc1ccc(Cl)cc1N=C=O ... 60 to 62 °C
CCOC(=O)C(=NNc1ccccc1[N+](=O)[O-])C(=O)OCC ... 196 °C

# get_value(readout='melting point', item= `CCOc1ccc(C(=O)O)cc1` )
198 °C

For `COC(=O)c1ccc(CO)cc1` then?
45 to 50 °C

For `O=Cc1ccc(-c2ccc(F)c(C(F)(F)F)c2)o1` then?
89 to 91 °C

For `COc1ccc(NC(N)=S)c(OC)c1` then?
199 to 201 °C

For `O=S(=O)(Cl)c1sc(-c2ccccc2)nc1-c1ccccc1` then?
173 to 174 °C

For `CC1(C)Cc2cccc(CO)c2O1` then?
59 to 60 °C

For `CC(=O)c1nn(-c2cccc([N+](=O)[O-])c2)c(=NC(=O)c2ccccc2)s1` then?
196 °C

###

Short version: melting point at least 200 °C is criterion met, less is criterion not met.

Example cases with answers are listed next.
CC1Cc2c(Cl)cc(C(=O)NC(Cc3ccccc3)C(=O)O)c(O)c2C(=O)O1 (stereo unspecified) ... criterion not met
O=Cc1ccc2[nH]ccc2c1 ... criterion not met
C=CCCCCCCC(=O)O ... criterion not met
CCC1CC(OP(=O)(O)O)CC(C)(C)N1O (stereo unspecified) ... criterion met
O=C1CCC2C1C1CCC(=O)C21 (stereo unspecified) ... criterion met
CC(C=CC=C(C)C=CC1=C(C)CC(O)CC1(C)C)=CC=CC=C(C)C=CC=C(C)C=CC1=C(C)CC(O)CC1(C)C (stereo unspecified) ... criterion met

Could you tell me if the measured melting point of `O=S(=O)(Cl)c1ccc(Br)s1` reaches 200 °C or more?
criterion not met

###

metric: melting point

Nc1ccc(Oc2ccc(Cl)cc2)cc1 ... 102 °C
C[Si](C)(C)CCS(=O)(=O)c1ccccc1 ... 50 to 53 °C
OCC#Cc1cc(C(F)(F)F)cc(C(F)(F)F)c1 ... 58 to 60 °C

--- query ---
# get_value(readout='melting point', item= CC(=O)C1(O)CCC2C3C=C(C)C4=CC(=O)CCC4(C)C3CCC21C (centres undefined) )
219 °C

###

// returns false (0) unless melting point is strictly below 100 °C, in which case true (1)

Example cases with answers are listed next.
O=C(Nc1ccc(F)cc1)c1cccc(Oc2cccc(C(F)(F)F)c2)n1 ... false (0)
O=C1c2cccc(O)c2C(=O)c2c(O)cc(CO)cc21 ... false (0)
Fc1ccccc1C1=NCC(=S)N(CC(F)(F)F)c2ccc(Cl)cc21 ... false (0)
Cc1ccc(C)c(O)c1C ... true (1)
CN(C)CCC=C1c2ccccc2CSc2ccccc21 ... true (1)

Item Cc1ccc(C2C(C#N)=C(N)Oc3[nH]nc(C(F)(F)F)c32)cc1 (stereo unspecified) : melting point beneath 100 °C, strictly?
false (0)

For CC12CCC(O)CC1CCC1C2CCC2(C)C(OC(=O)c3ccccc3)CCC12 (stereo unspecified) then?
false (0)

For `CCc1ccccc1Nc1ccccc1CC` then?
true (1)

For `CC(C)(CO)C(=O)O` then?
false (0)

For `O=C=NS(=O)(=O)Cl` then?
true (1)
